Reference for the values: the supplement of paper PMC10567573

B1: ACSBG2 (parent)
chain: FAQADALKGTLVSTLKEVKPTVFI

Variants of: B1
Test: protein stability index of a GFP-peptide fusion (GPS, HEK-293T) (PSI 1-6); higher = more stable;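 also: lentivirally expressed fusions sorted by FACS into six bins by GFP to DsRed ratio, PSI derived from sequencing read proportions per bin multiplied by bin number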
Details: c terminus: a fixed tail appended
Short version: protein stability index at least 2 is 1, less is 0.

| mutant | discrete_label |
| --- | --- |
| K19F | 1 |
| S13C | 0 |
| G9S | 1 |
| F1A | 1 |
| V18P | 0 |

### Prompt Determine whether measured protein stability index meets or exceeds 2 for T10W
### Response 1

### Prompt Also need Q3N , thanks.
### Response 1

### Prompt Same question for L7Q please.
### Response 1

### Prompt And the next one, F1C ?
### Response 0
